Assay: blockers of DNA damage checkpoint Chk1 activation – imaging, HeLa, hydroxyurea, phospho-Chk1 nuclear intensity, primary screen (AID 1187); further: test concentration not given here
Details: hydroxyurea-induced phospho-Chk1 immunofluorescence imaging, higher = more signal
OBSERVED PROPERTY: z-score

COMPOUND	MEASURED
O=C1c2ccccc2[C@@]2(Cc3ccccc3N(Cc3ccccc3)C2=O)[C@H](c2ccc(CO)cc2)N1Cc1ccccc1Cl	0
C[C@]1(C(=O)O)c2ccccc2C(=O)N(Cc2cc(F)cc(C(F)(F)F)c2)[C@H]1c1ccc(CO)cc1	0.239
C=C(C)[C@@H]1CC=C(C(O)C2C=CC3C(=O)N(c4ccccc4)C(=O)C3N2Nc2ccc([N+](=O)[O-])cc2)CC1 (stereo not given in full)	0.0235
COc1ccc([Si](C)(C)[C@H]2[C@H](CCO)O[C@@]3(C(=O)N(Cc4cccc(N5C(=O)c6ccccc6Oc6ccccc65)c4)c4ccccc43)[C@@H]2C)cc1	-0.702
O=C1O[C@H](c2ccccc2)[C@H](c2ccccc2)N2[C@H]1[C@@H](C(=O)O)[C@]1(C(=O)Nc3ccc(C#CCCO)cc31)[C@H]2c1ccc(OCCO)cc1	-0.132
O=C(NCC(O)CO)C1N=C(c2ccc(OCCCO)cc2)N(c2ccccc2)O1 (stereo not given)	-0.257
Cc1ccc(C(C)CC(O)C2C=CC3C(=O)N(C)C(=O)C3N2Nc2ccccc2)o1 (stereo not given)	-0.0486
COCCOC(=O)N1C(=O)[C@@]2(c3ccccc31)[C@H](c1ccc(O)cc1)N1[C@H](c3ccccc3)[C@H](c3ccccc3)OC(=O)[C@H]1[C@@H]2C(=O)N1CCCCCCC1	0.157
COC(=O)C(CC#Cc1ccc2c(c1)[C@]1(C(=O)N2)[C@H](C(=O)NC[C@H](O)c2ccccc2)[C@H]2C(=O)O[C@H](c3ccccc3)[C@H](c3ccccc3)N2[C@@H]1c1ccccc1OCCO)C(=O)OC	0.0197
C=CCN1C(=O)[C@@]2(O[C@@H](CCn3cc([C@H](O)c4ccccc4)nn3)[C@H]([Si](C)(C)c3ccc(OC)cc3)[C@H]2C)c2cc(N3C(=O)c4cccc5cccc3c45)ccc21	0.311
